Quick reference: viability, T/C of the listed items.
test system: 873145-292-R-J1-PDC complex spheroid viability; assay: Anticancer human tumor 873145-292-R-J1-PDC patient-derived renal clear cell carcinoma cell line growth inhibition [POLQ]; conditions: second compound 0.1 µM; first compound 0.0316 µM; stronger effect = lower value;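 note: luminescence signal used as surrogate for viable cell content; spheroids exposed to compounds for 7 days before viability readout; 100% = DMSO vehicle control viability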

Which viability, T/C reading was recorded for the compound CNCc1ccc(-c2[nH]c3cc(F)cc4c3c2CCNC4=O)cc1 + Cc1cccc(N(C)C(=O)C2C(O)CCN2c2nc(C)cc(C(F)(F)F)c2C#N)c1 ?
110%

Which viability, T/C reading was recorded for the compound CC[C@@]1(O)C(=O)OCc2c1cc1n(c2=O)Cc2cc3c(CN(C)C)c(O)ccc3nc2-1 + COC1C(OC(N)=O)C(O)C(Oc2ccc3c(O)c(NC(=O)c4ccc(O)c(CC=C(C)C)c4)c(=O)oc3c2C)OC1(C)C ?
80.6%

Which viability, T/C reading was recorded for the compound COc1cc(C2c3cc4c(cc3C(OC3OC5COC(C)OC5C(O)C3O)C3COC(=O)C23)OCO4)cc(OC)c1O (stereo not given) + Nc1ccc(C#CCN(C(=O)Cc2ncc(C(F)(F)F)cc2C(F)(F)F)c2ccc(F)cc2)nn1 ?
107%

Which viability, T/C reading was recorded for the compound O=C(Nc1ccc(O)c(NS(=O)(=O)c2ccc(F)cc2)c1)c1ccc(-c2ccccc2)cc1 + Cc1cccc(N(C)C(=O)C2C(O)CCN2c2nc(C)cc(C(F)(F)F)c2C#N)c1 ?
107%

Which viability, T/C reading was recorded for the compound CC1COCCN1c1cc(C2(O)CC3CCC(C2)O3)c2cnn(-c3ccn[nH]3)c2n1 (stereo not given) + COC1C(OC(N)=O)C(O)C(Oc2ccc3c(O)c(NC(=O)c4ccc(O)c(CC=C(C)C)c4)c(=O)oc3c2C)OC1(C)C ?
85.8%
